Quick reference: melting point of the listed items.

O=c1ccc2cnc(Nc3ccccc3)nc2n1C1CC2CCC1C2 (stereo not drawn): 225 to 226 °C
Cn1c(=O)ccc2cnc(Nc3ccccc3)nc21: 244 to 247 °C
CCn1c(=O)ccc2cnc(Nc3ccccc3OC)nc21: 126 to 128 °C

Moving on to another molecule below.
// recorded melting point for `CN(C)c1ccc(Nc2ncc3ccc(=O)n(C4CCCCC4)c3n2)cc1` : 204 to 205 °C

* * *

SYSTEM UNDER TEST: Cdk5/p25 (Homo sapiens)
METHOD NOTES: Cyclin-Dependent Kinase 5 (cdk5) Assay
Format: biochemical
MEASUREMENT PARAMETERS: Table 1
pIC50: −log10 of the molar value.
MEASURED PROPERTY: pIC50

Here's what some known entries look like.
O=c1ccc2cnc(Nc3ccc(N4CCC(CCCO)CC4)cc3)nc2n1C1CCCC1 [Example 197]: 6.90
CCN(CC)CCOc1ccc(Nc2ncc3ccc(=O)n(C4CCCC4)c3n2)cc1 [Example 117]: 7.72
O=c1ccc2cnc(Nc3ccc(N4CCC(CCCO)CC4)cc3)nc2n1C1CC2CCC1C2 (stereo not drawn) [Example 214]: 5.48
O=c1ccc2cnc(Nc3cccc(N4CCCCC4)c3)nc2n1C1CCCCC1 [Example 203]: 7.08
O=c1ccc2cnc(Nc3ccc(N4CCCCC4)cc3)nc2n1C1CCOCC1 [Example 211]: 6.47
Cc1cc(C)n(-c2ccc(Nc3ncc4ccc(=O)n(C5CCCC5)c4n3)cc2)n1 [Example 195]: 6.81
CCn1c(=O)ccc2cnc(Nc3ccc(OC)c(F)c3)nc21 [Example 90]: 7.54
CCn1c(=O)ccc2cnc(Nc3ccc(OC)cc3)nc21 [Example 51]: 7.31
O=c1ccc2cnc(Nc3ccc(N4CCC(CCCN5CCOCC5)CC4)cc3)nc2n1C1CC2CCC1C2 (stereo not drawn) [Example 235]: 5.84
O=c1ccc2cnc(Nc3ccccc3)nc2n1Cc1ccccc1 [Example 35]: 6.51

[A] O=c1ccc2cnc(Nc3ccc(F)cc3)nc2n1C1CC2CCC1C2 (stereo not drawn) [Example 212]
[B] O=c1ccc2cnc(Nc3ccc(N4CCCCC4)cc3)nc2n1[C@@H]1C[C@H]2CC[C@@H]1C2 (relative stereo) [Example 181]
[C] CCn1c(=O)ccc2cnc(Nc3ccccc3OC)nc21 [Example 92]
[D] O=c1ccc2cnc(Nc3ccc(-n4cccc4)cc3)nc2n1C1CCCCC1 [Example 161]
Descending sort on pIC50 required. Reply with the item labels sorted in the order that was asked for. A, D, B, C

[1] O=c1ccc2cnc(Nc3ccc(N4CCC(O)CC4)cc3)nc2n1C1CCCC1 [Example 198]
[2] CCn1c(=O)ccc2cnc(Nc3ccc(N4CCN(C)CC4)cc3)nc21 [Example 53]
Please indicate which entry, 1 or 2 , has the lower recorded pIC50 value. Could you answer with the label of the item you picked? 2

[1] O=c1ccc2cnc(Nc3ccc(N4CCC(CCO)CC4)cc3)nc2n1C1CC2CCC1C2 (stereo not drawn) [Example 228]
[2] CN1CCN(c2ccc(Nc3ncc4ccc(=O)n(C5CC5)c4n3)cc2)CC1 [Example 136]
Please indicate which entry, 1 or 2 , has the lower recorded pIC50 value. Could you answer with the label of the item you picked? 2
(2: 6.62, 1: 7.41)

* * *

SYSTEM UNDER TEST: cdk4/D (Homo sapiens, UniProt P11802)
Sequence (P11802 whole entry): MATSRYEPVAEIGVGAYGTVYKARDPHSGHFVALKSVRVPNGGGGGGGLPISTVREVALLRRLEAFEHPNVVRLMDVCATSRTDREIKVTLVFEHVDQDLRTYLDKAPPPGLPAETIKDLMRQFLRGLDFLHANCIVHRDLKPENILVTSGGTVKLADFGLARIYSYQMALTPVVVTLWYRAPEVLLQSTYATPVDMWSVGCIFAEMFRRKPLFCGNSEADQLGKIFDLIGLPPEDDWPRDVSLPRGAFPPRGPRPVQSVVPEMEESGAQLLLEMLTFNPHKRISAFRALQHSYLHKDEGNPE
Sequence (P24385 whole entry, further chain): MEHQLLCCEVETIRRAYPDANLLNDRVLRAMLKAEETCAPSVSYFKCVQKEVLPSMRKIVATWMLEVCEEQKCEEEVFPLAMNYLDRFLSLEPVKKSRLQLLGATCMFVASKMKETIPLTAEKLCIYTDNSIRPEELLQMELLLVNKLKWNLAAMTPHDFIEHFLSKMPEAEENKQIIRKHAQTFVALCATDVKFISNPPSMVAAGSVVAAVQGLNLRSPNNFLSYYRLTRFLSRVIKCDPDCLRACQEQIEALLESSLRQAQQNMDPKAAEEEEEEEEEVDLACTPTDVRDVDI
METHOD NOTES: Cyclin-Dependent Kinase 4 (cdk4) Assay
Assay type: biochemical
MEASUREMENT PARAMETERS: read-out: cdk4/D IC50
pIC50: −log10 of the molar value.
MEASURED PROPERTY: pIC50

Here's what some known entries look like.
Cc1ccc(Nc2ncc3ccc(=O)n(CC4CC4)c3n2)cc1NS(C)(=O)=O: 6.70
CCCCn1c(=O)ccc2cnc(Nc3ccc(C)c(NS(C)(=O)=O)c3)nc21: 5.51
O=c1ccc2cnc(Nc3cccc(C(F)(F)F)c3)nc2n1C1CCCC1: 5.77

[I] CCC(CC)n1c(=O)ccc2cnc(Nc3ccc(O)c(C(=O)O)c3)nc21
[II] O=c1ccc2cnc(Nc3ccc(O)c(Cl)c3)nc2n1CC1CC1
Which record would sort first by descending pIC50, I or II ? Could you answer with the label of the item you picked? II

[1] CCCCn1c(=O)ccc2cnc(Nc3ccc(C)c(C)c3)nc21
[2] CC1Nc2ccc(Nc3ncc4ccc(=O)n(C5CCCC5)c4n3)cc2C1C (stereo not shown)
[3] CCC(C)n1c(=O)ccc2cnc(Nc3ccc4[nH]ncc4c3)nc21 (stereo not shown)
Descending sort on pIC50 required. Reply with the item labels sorted in the order that was asked for. 3, 2, 1

[1] CCn1c(=O)ccc2cnc(Nc3ccc(C)c(NS(C)(=O)=O)c3)nc21
[2] CCC(CC)n1c(=O)ccc2cnc(Nc3ccc(Cl)c(C(F)(F)F)c3)nc21
[3] CC(C)n1c(=O)ccc2cnc(Nc3ccc(F)c(Cl)c3)nc21
[4] CCC(C)n1c(=O)ccc2cnc(Nc3ccc(F)c(C(F)(F)F)c3)nc21 (stereo not shown)
Number of compounds to sort: 4. Sort criterion: pIC50, ascending. Reply with the item labels sorted in the order that was asked for. 1, 4, 2, 3

[A] CCCCn1c(=O)ccc2cnc(Nc3ccc(N(C)C(C)=O)cc3)nc21
[B] CCC(C)n1c(=O)ccc2cnc(Nc3ccc(C)c(Cl)c3)nc21 (stereo not shown)
Please indicate which entry, A or B , has the lower recorded pIC50 value. Could you answer with the label of the item you picked? A
(A: 5.94, B: 7.02)

[1] CCCn1c(=O)ccc2cnc(Nc3ccc(OC)c(F)c3)nc21
[2] CCC(C)n1c(=O)ccc2cnc(Nc3cc(Cl)c(Cl)c(Cl)c3)nc21 (stereo not shown)
Please indicate which entry, 1 or 2 , has the lower recorded pIC50 value. Could you answer with the label of the item you picked? 2

[I] Cc1cc(Nc2ncc3ccc(=O)n(C(C)C)c3n2)ccc1Br
[II] CCCCn1c(=O)ccc2cnc(Nc3ccc(OC)c(OC)c3)nc21
Which record would sort first by descending pIC50, I or II ? Could you answer with the label of the item you picked? II

[I] Cc1ccc(Nc2ncc3ccc(=O)n(C(C)C)c3n2)cc1C
[II] CCCCn1c(=O)ccc2cnc(Nc3ccc4c(c3)CCCC4=O)nc21
[III] CCC(C)n1c(=O)ccc2cnc(Nc3cc([N+](=O)[O-])ccc3F)nc21 (stereo not shown)
[IV] Cc1cc(Nc2ncc3ccc(=O)n(C(C)C)c3n2)cc(C)c1O
Descending sort on pIC50 required. Reply with the item labels sorted in the order that was asked for. II, III, I, IV

[P] CCCn1c(=O)ccc2cnc(Nc3ccc(OC)c(Cl)c3)nc21
[Q] CCC(C)n1c(=O)ccc2cnc(Nc3cc(OC)cc(C(F)(F)F)c3)nc21 (stereo not shown)
[R] CCCn1c(=O)ccc2cnc(Nc3cc(F)c(F)c(F)c3)nc21
Number of compounds to sort: 3. Sort criterion: pIC50, ascending. Reply with the item labels sorted in the order that was asked for. R, P, Q

* * *

SYSTEM UNDER TEST: cdc2/cyclinB (Homo sapiens)
Sequence (P06493 whole entry): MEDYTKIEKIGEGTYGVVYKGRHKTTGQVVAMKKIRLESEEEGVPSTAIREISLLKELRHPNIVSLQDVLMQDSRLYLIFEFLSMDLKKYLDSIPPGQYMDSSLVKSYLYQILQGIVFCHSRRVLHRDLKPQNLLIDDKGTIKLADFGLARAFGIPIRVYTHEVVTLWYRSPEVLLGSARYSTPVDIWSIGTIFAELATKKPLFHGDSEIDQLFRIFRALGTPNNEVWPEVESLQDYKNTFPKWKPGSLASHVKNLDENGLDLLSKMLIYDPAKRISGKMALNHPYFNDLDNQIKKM
Sequence (P14635 whole entry, further chain): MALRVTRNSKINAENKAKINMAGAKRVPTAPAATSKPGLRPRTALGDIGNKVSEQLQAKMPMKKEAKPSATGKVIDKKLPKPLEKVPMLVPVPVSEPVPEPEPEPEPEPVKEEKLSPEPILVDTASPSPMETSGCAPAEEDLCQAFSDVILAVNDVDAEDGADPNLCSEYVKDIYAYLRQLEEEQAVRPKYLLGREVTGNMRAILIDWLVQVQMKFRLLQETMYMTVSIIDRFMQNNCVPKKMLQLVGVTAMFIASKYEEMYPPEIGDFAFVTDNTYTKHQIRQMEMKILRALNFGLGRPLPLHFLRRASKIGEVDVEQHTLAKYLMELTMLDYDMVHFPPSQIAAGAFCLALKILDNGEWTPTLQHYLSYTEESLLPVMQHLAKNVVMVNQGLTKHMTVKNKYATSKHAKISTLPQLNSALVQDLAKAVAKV
METHOD NOTES: Cyclin-Dependent Kinase Assay cdc2/cyclinB
MEASURED PROPERTY: IC50 (nM)

Here's what some known entries look like.
CCCCn1c(=O)ccc2cnc(Nc3c(F)cc(F)cc3F)nc21 [Example 366]: 1320
COc1ccc(Nc2ncc3ccc(=O)n(C(C)C)c3n2)cc1F [Example 422]: 160
CCCn1c(=O)ccc2cnc(Nc3ccc(N(C)C(C)=O)cc3)nc21 [Example 345]: 590
CCC(CC)n1c(=O)ccc2cnc(Nc3ccc(O)c(C(=O)O)c3)nc21 [Example 524]: 620
CCC(CC)n1c(=O)ccc2cnc(Nc3cc(OC)cc(C(F)(F)F)c3)nc21 [Example 508]: 230

[1] O=c1ccc2cnc(Nc3ccc4c(c3)CCN4)nc2n1CC1CC1 [Example 581]
[2] CCC(CC)n1c(=O)ccc2cnc(Nc3cc([N+](=O)[O-])ccc3F)nc21 [Example 504]
[3] CCn1c(=O)ccc2cnc(Nc3ccc(F)c(C)c3)nc21 [Example 294]
[4] CCC(CC)n1c(=O)ccc2cnc(Nc3ccc(O)c(Cl)c3)nc21 [Example 496]
Descending sort on IC50 required. Reply with the item labels sorted in the order that was asked for. 1, 2, 3, 4
(1: 1600 nM, 2: 520 nM, 3: 210 nM, 4: 24 nM)

* * *

SYSTEM UNDER TEST: cdk2/cyclinA (Homo sapiens)
METHOD NOTES: Cyclin-Dependent Kinase Assay cdk2/cyclinA
MEASUREMENT PARAMETERS: cdk2/A IC50, Table 1
MEASURED PROPERTY: IC50 (µM)

[1] CC1CCN(c2ccc(Nc3ncc4ccc(=O)n(C5CCCCC5)c4n3)cc2)CC1
[2] O=c1ccc2cnc(Nc3ccc(N4CCCCC4CO)cc3)nc2n1C1CC2CCC1C2 (stereo not shown)
[3] CC1CCCN(c2ccc(Nc3ncc4ccc(=O)n(C5CCCCC5)c4n3)cc2)C1 (stereo not shown)
Could you put the items above in increasing order of their IC50? Reply with the item labels sorted in the order that was asked for. 1, 2, 3
